TEST_TARGET: PRMT5/MEP50 (Homo sapiens)
Sequence (O14744 whole entry): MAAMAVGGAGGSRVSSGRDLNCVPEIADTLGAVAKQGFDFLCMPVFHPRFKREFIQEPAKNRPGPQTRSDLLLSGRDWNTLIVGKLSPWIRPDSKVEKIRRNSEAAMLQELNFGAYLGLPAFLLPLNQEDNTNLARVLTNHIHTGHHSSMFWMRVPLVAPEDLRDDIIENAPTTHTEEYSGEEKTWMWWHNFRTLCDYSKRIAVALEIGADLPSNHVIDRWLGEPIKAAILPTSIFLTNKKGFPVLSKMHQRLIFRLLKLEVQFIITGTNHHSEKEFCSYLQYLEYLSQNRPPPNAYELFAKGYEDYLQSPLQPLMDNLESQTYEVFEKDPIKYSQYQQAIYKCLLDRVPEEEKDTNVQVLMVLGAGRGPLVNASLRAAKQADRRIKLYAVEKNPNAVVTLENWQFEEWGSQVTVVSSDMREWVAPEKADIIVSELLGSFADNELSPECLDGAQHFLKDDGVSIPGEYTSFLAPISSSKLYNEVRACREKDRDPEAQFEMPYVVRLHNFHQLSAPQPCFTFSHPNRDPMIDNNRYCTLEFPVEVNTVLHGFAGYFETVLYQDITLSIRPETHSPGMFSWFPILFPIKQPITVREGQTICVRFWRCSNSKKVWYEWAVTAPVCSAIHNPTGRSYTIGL
Sequence (Q9BQA1 whole entry partner): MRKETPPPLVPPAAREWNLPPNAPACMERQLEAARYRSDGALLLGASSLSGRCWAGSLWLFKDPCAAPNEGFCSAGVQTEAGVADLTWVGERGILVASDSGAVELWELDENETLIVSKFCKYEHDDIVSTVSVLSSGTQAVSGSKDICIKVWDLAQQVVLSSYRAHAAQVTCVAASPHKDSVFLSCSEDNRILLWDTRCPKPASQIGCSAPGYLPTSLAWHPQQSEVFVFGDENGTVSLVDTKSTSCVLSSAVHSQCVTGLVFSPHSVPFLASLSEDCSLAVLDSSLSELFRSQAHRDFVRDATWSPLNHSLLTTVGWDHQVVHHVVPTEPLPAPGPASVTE
PROTOCOL_TEXT: MTase-Glo methyl transferase assay, Method A (Histone H4 peptide, 1 µM MTA, 24 h pre-incubation)
Assay type: biochemical
Parameters: made in house
MEASUREMENT_CONDITIONS: read-out: PRMT5 MTase Glo Ki (nM, Meth. A)
Ki less than 0.2 nM is T; Ki greater than or equal to 0.2 nM is F.

Worked examples follow.
[
  {
    "MOLECULE": "Cc1cc2cc(C(=O)N(Cc3ccc(C(F)(F)F)cn3)[C@@H]3COC[C@H]3O)ccc2nc1N",
    "TEST_TARGET": "PRMT5/MEP50 (Homo sapiens)",
    "ANSWER_LABEL": "F"
  },
  {
    "MOLECULE": "Cc1cc2cc(C(=O)N(Cc3ccncn3)Cc3ccc(C(F)(F)F)cn3)ccc2nc1N",
    "TEST_TARGET": "PRMT5/MEP50 (Homo sapiens)",
    "ANSWER_LABEL": "F"
  },
  {
    "MOLECULE": "Cc1cc2cc(C(=O)N(Cc3ccc(C(F)(F)F)cn3)[C@@H]3CCOc4ncccc43)ccc2nc1N (single isomer, unassigned)",
    "TEST_TARGET": "PRMT5/MEP50 (Homo sapiens)",
    "ANSWER_LABEL": "F"
  }
]

Take the molecule C[C@H](c1ncccn1)N(Cc1ccc(C(F)F)cn1)C(=O)c1ccc2nc(N)c(Cl)cc2c1 and say whether its Ki is less than 0.2 nM. F

Confirm or reject: Ki of Cc1c(N)nc2ccc(C(=O)N(Cc3ccc(C#N)cn3)[C@H](C)c3ncccn3)cc2c1C lies strictly below 0.2 nM F

Would you kindly verify if Ki of CCOc1ccc(CN(C(=O)c2cnc3nc(N)c(Br)cc3c2)[C@H](C)c2ncccn2)nn1 is strictly less than 0.2 nM? T

Please determine if CC[C@H](c1ncccn1)N(Cc1cnc(C(F)(F)F)cn1)C(=O)c1ccc2nc(N)c(C)cc2c1 (single isomer, unassigned) is below 0.2 nM in terms of Ki. T

Does the reported Ki of the following molecule sit strictly below 0.2 nM? Cc1cc2cc(C(=O)N(Cc3ccc(C#N)cn3)[C@@H]3CCCn4ncnc43)ccc2nc1N (single isomer, unassigned) F

* * *

TEST_TARGET: PRMT5/MEP50 (Homo sapiens)
PROTOCOL_TEXT: MTase-Glo methyl transferase assay, Method A (Histone H4 peptide, 1 µM MTA, 24 h pre-incubation)
Type: biochemical
Set-up: made in house
MEASUREMENT_CONDITIONS: read-out: PRMT5 MTase Glo Ki (nM, Meth. A)
RECORDED_METRIC: Ki (nM)
Return type: number; implicit unit nM.

[
  {
    "COMPOUND": "Cc1cc2cc(C(=O)N(Cc3ccc(C(F)F)cn3)[C@H](C)c3ncc(F)cn3)ccc2nc1N (single isomer, unassigned)",
    "Ki / nM": 0.16
  }
]

What does the data say about its Ki? Entry: Cc1cc2cc(C(=O)N(Cc3ccc(OC(F)F)cn3)[C@H](C)c3ncccn3)ccc2nc1N (single isomer, unassigned) 0.1

What Ki value was documented for this compound, Cc1cc2cc(C(=O)N(Cc3ccc(C(F)(F)F)cn3)Cc3ncc(F)cn3)ccc2nc1N ? 0.52

* * *

Below, each entry is listed alongside its reported pIC50.
Test system: HCT116 MTAP null cells
PROTOCOL_TEXT: HCT116 proliferation assay, MTAP null cells (CellTiter-Glo, 6 days)
Assay type: cell-based
MEASUREMENT_CONDITIONS: HCT116-MTAP null, 144 h, read-out: Protif_ HCT116-MTAP null IC50
Schema: pIC50 number; meaning minus log10 of the concentration expressed in molar units.

A selection of reference data follows.
[
  {
    "COMPOUND": "Cc1cc2cc(C(=O)N(Cc3ccc(C(F)(F)F)cn3)Cc3ncc(F)cn3)ccc2nc1N",
    "pIC50": 6.36
  },
  {
    "COMPOUND": "Cc1cc2cc(C(=O)N(Cc3ccc(C(F)(F)F)cn3)CC3(C#N)CC3)ccc2nc1N",
    "pIC50": 6.80
  },
  {
    "COMPOUND": "Cc1cc2cc(C(=O)N(Cc3ccc(C(F)(F)F)cn3)C(C)C(C)O)ccc2nc1N (stereo not drawn)",
    "pIC50": 6.04
  },
  {
    "COMPOUND": "Cc1cc2cc(C(=O)N(Cc3ccc(C(F)(F)F)cn3)C3CCCC4OCCC43)ccc2nc1N (stereo not drawn)",
    "pIC50": 6.48
  },
  {
    "COMPOUND": "CC[C@H](c1ncccn1)N(Cc1ccc(C(F)F)cn1)C(=O)c1cnc2nc(N)c(Br)cc2c1 (single isomer, unassigned)",
    "pIC50": 6.73
  }
]

Now, please, on to the next compound.
Would you kindly share the measured pIC50 for N#CC1(CN(Cc2ccc(C(F)(F)F)cn2)C(=O)c2ccc3nc(N)c(Br)cc3c2)CC1 ? 6.04
